# target.desc: human recombinant AChE (Homo sapiens)
# assay.explanation: biochemical
# Format: biochemical
# experimental.setup: mean ± SEM of three independent measurements, each in triplicate; read-out: IC50, hAChE ± SEM
pIC50: −log10 of the molar value.
reported.property: pIC50

Use these answered entries as a reference point.
Give the measured pIC50 of C=CCN(CCc1ccc(OC)cc1)Cc1ccc(OC)c(OCc2ccccc2)c1 [Compound 14] .
4.42

Give the measured pIC50 of CCOc1cc(CN(CCc2ccccc2)Cc2ccccc2)ccc1OC [Compound 20] .
< 4.00

Give the measured pIC50 of COc1ccc(CNCCc2ccccc2)cc1OCc1ccccc1 [Compound 8] .
< 4.00

Give the measured pIC50 of C=CCN(CCc1ccc(O)cc1)Cc1ccc(OCc2ccccc2)c(OC)c1 [Compound 3] .
< 4.00

Give the measured pIC50 of COc1ccc(CNCCc2ccc(O)cc2)cc1OCc1ccccc1 [Compound 2] .
< 4.00

Others:
Give the measured pIC50 of C=CCN(CCc1ccc(O)cc1)Cc1ccc(OC)c(OCC)c1 [Compound 16] .
< 4.00

Give the measured pIC50 of CCOc1cc(CNCCc2ccccc2)ccc1OC [Compound 18] .
< 4.00

Give the measured pIC50 of C=CCOc1ccc(CCN(CC=C)Cc2ccc(OC)c(OCC)c2)cc1 [Compound 17] .
< 4.00

Give the measured pIC50 of C=CCOc1ccc(CCN(CC=C)Cc2ccc(OC)c(OCc3ccccc3)c2)cc1 [Compound 6] .
< 4.00

Give the measured pIC50 of C=CCN(CCc1ccccc1)Cc1ccc(OC)c(OCc2ccccc2)c1 [Compound 10] .
4.67

###

# target.desc: human recombinant AChE (Homo sapiens, UniProt P22303)
# Sequence (P22303 32-614): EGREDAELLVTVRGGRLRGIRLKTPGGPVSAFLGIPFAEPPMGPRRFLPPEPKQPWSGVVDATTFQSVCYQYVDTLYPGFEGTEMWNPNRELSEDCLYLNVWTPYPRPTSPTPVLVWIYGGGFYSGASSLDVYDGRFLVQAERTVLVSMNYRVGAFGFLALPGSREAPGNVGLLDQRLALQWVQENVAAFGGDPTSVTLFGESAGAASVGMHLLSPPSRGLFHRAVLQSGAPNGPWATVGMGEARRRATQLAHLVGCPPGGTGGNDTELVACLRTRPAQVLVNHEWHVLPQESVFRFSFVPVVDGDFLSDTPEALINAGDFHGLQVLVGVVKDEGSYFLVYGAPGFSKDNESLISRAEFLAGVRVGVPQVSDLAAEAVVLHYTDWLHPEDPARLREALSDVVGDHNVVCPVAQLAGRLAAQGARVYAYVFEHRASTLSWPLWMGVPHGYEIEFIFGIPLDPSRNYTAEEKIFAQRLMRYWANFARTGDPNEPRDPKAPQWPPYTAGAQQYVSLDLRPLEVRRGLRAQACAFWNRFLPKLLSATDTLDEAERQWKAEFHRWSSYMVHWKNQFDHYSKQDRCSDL
# assay.explanation: biochemical
# Assay type: biochemical
# experimental.setup: tested at 100 µM compound concentration; read-out: %Inhibition hAChE ± SEM
reported.property: inhibition at 100 µM (%)
Kindly answer with a numeric value in %, unit omitted.

Use these answered entries as a reference point.
Give the measured inhibition at 100 µM of C=CCOc1ccc(CCN(CC=C)Cc2ccc(OCc3ccccc3)c(OC)c2)cc1 [Compound 5] .
3.4

Give the measured inhibition at 100 µM of C=CCN(CCc1ccccc1)Cc1ccc(OC)c(OCc2ccccc2)c1 [Compound 10] .
72.4

Give the measured inhibition at 100 µM of C=CCN(CCc1ccccc1)Cc1ccc(OCc2ccccc2)c(OC)c1 [Compound 9] .
18.8

Give the measured inhibition at 100 µM of COc1ccc(CCNCc2ccc(OC)c(OCc3ccccc3)c2)cc1 [Compound 12] .
0

Give the measured inhibition at 100 µM of CCOc1cc(CNCCc2ccccc2)ccc1OC [Compound 18] .
0

Others:
Give the measured inhibition at 100 µM of COc1ccc(CCNCc2ccc(OCc3ccccc3)c(OC)c2)cc1 [Compound 11] .
27.9

Give the measured inhibition at 100 µM of C=CCOc1ccc(CCN(CC=C)Cc2ccc(OC)c(OCC)c2)cc1 [Compound 17] .
29.3

Give the measured inhibition at 100 µM of C=CCN(CCc1ccc(O)cc1)Cc1ccc(OCc2ccccc2)c(OC)c1 [Compound 3] .
20.8

Give the measured inhibition at 100 µM of C=CCN(CCc1ccc(O)cc1)Cc1ccc(OC)c(OCc2ccccc2)c1 [Compound 4] .
45.2

###

# target.desc: human plasma BChE (Homo sapiens, UniProt P06276)
# Construct: was used as a source of BChE and was prepared from heparinized human blood; from tissue; host or cells: human plasma from heparinized human blood
# Sequence (P06276 29-602): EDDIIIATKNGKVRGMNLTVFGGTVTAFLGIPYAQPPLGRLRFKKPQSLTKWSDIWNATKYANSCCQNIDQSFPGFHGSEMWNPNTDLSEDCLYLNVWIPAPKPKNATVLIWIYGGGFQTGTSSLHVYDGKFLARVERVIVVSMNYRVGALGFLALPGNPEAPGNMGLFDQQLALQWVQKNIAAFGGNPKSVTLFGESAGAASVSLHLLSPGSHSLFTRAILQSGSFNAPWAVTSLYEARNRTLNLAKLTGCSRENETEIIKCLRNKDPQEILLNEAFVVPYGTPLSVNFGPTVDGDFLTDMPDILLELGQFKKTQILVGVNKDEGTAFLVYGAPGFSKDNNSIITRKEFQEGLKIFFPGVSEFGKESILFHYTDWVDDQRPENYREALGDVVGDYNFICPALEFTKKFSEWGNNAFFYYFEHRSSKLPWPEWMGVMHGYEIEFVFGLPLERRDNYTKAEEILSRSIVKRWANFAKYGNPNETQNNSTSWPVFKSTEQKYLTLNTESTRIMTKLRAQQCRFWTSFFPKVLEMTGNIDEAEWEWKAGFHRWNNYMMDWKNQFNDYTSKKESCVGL
# assay.explanation: biochemical
# Assay type: biochemical
# experimental.setup: tested at 100 µM compound concentration; read-out: % Inhibition hBuChE ± SEM
reported.property: inhibition at 100 µM (%)
Kindly answer with a numeric value in %, unit omitted.

Use these answered entries as a reference point.
Give the measured inhibition at 100 µM of COc1cc(CNCCc2ccccc2)ccc1OCc1ccccc1 [Compound 7] .
94.5

Give the measured inhibition at 100 µM of C=CCOc1ccc(CCN(CC=C)Cc2ccc(OC)c(OCC)c2)cc1 [Compound 17] .
77

Give the measured inhibition at 100 µM of C=CCN(CCc1ccc(O)cc1)Cc1ccc(OC)c(OCC)c1 [Compound 16] .
91.7

Others:
Give the measured inhibition at 100 µM of C=CCOc1ccc(CCN(CC=C)Cc2ccc(OCc3ccccc3)c(OC)c2)cc1 [Compound 5] .
38.9

Give the measured inhibition at 100 µM of C=CCN(CCc1ccccc1)Cc1ccc(OCc2ccccc2)c(OC)c1 [Compound 9] .
74.9

Give the measured inhibition at 100 µM of COc1ccc(CNCCc2ccc(O)cc2)cc1OCc1ccccc1 [Compound 2] .
97.7

Give the measured inhibition at 100 µM of CCOc1cc(CNCCc2ccc(O)cc2)ccc1OC [Compound 15] .
75.3

Give the measured inhibition at 100 µM of C=CCOc1ccc(CCN(CC=C)Cc2ccc(OC)c(OCc3ccccc3)c2)cc1 [Compound 6] .
98.6

Give the measured inhibition at 100 µM of COc1ccc(CCNCc2ccc(OCc3ccccc3)c(OC)c2)cc1 [Compound 11] .
93.5

###

# target.desc: hBuChE (Homo sapiens, UniProt P06276)
# Construct: was used as a source of BChE and was prepared from heparinized human blood
# assay.explanation: Kinetic study of hBuChE inhibition
# experimental.setup: hBuChE, substrate butyrylthiocholine, nonlinear regression
reported.property: pKi
Scale for pKi: -log10 of concentration given in mol/L; no unit attached.

Give the measured pKi of C=CCOc1ccc(CCN(CC=C)Cc2ccc(OC)c(OCc3ccccc3)c2)cc1 [Compound 6] .
7.22

###

# assay.explanation: Cytotoxicity, MTT assay
# Format: cell-based
# experimental.setup: human, SH-SY5Y neuroblastoma cells, 24 h incubation
reported.property: viability at 24 h, 10 µM (%)
Kindly answer with a numeric value in %, unit omitted.

Give the measured viability at 24 h, 10 µM of `C=CCOc1ccc(CCN(CC=C)Cc2ccc(OC)c(OCc3ccccc3)c2)cc1` .
95.1

###

# target.desc: MAO-A (Homo sapiens)
# Sequence (P21397 whole entry): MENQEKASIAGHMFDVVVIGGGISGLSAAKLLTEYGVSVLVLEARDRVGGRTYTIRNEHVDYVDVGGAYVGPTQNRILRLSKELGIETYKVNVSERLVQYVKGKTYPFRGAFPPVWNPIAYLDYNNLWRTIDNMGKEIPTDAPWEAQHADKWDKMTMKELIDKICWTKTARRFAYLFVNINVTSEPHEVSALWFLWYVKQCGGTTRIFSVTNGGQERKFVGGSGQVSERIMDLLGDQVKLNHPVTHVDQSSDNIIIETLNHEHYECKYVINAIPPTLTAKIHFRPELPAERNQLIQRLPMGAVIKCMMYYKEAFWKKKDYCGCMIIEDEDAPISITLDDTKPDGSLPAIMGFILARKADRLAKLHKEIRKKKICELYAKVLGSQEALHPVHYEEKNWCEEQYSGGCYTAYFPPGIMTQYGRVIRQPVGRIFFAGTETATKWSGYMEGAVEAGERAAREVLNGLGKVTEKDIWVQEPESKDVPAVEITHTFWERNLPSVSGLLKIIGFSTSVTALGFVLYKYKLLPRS
reported.property: IC50

Give the measured IC50 of C=CCOc1ccc(CCN(CC=C)Cc2ccc(OC)c(OCc3ccccc3)c2)cc1 [Compound 6] .
> 10 µM

###

# target.desc: human plasma BChE (Homo sapiens)
# Construct: was used as a source of BChE and was prepared from heparinized human blood; from tissue; host or cells: human plasma from heparinized human blood
# assay.explanation: biochemical
# Format: biochemical
# experimental.setup: mean ± SEM of three independent measurements, each in triplicate; read-out: IC50, hBuChE ± SEM
Decision: IC50 beneath 1 µM gives 1 (yes); IC50 meeting or exceeding 1 µM gives 0 (no).

Consider the following illustrative entries.
Given the entry CCOc1cc(CNCCc2ccc(O)cc2)ccc1OC [Compound 15] , would its reported IC50 be below 1 µM?
0 (no)

Given the entry C=CCN(CCc1ccccc1)Cc1ccc(OCc2ccccc2)c(OC)c1 [Compound 9] , would its reported IC50 be below 1 µM?
0 (no)

Given the entry C=CCOc1ccc(CCN(CC=C)Cc2ccc(OC)c(OCc3ccccc3)c2)cc1 [Compound 6] , would its reported IC50 be below 1 µM?
1 (yes)

Others:
Given the entry CCOc1cc(CNCCc2ccccc2)ccc1OC [Compound 18] , would its reported IC50 be below 1 µM?
0 (no)

Given the entry COc1cc(CNCCc2ccc(O)cc2)ccc1OCc1ccccc1 [Compound 1] , would its reported IC50 be below 1 µM?
1 (yes)

Given the entry COc1ccc(CNCCc2ccc(O)cc2)cc1OCc1ccccc1 [Compound 2] , would its reported IC50 be below 1 µM?
1 (yes)

Given the entry C=CCN(CCc1ccccc1)Cc1ccc(OC)c(OCC)c1 [Compound 19] , would its reported IC50 be below 1 µM?
0 (no)

Given the entry C=CCOc1ccc(CCN(CC=C)Cc2ccc(OC)c(OCC)c2)cc1 [Compound 17] , would its reported IC50 be below 1 µM?
0 (no)

Given the entry C=CCN(CCc1ccc(O)cc1)Cc1ccc(OC)c(OCc2ccccc2)c1 [Compound 4] , would its reported IC50 be below 1 µM?
1 (yes)

Given the entry C=CCN(CCc1ccc(O)cc1)Cc1ccc(OC)c(OCC)c1 [Compound 16] , would its reported IC50 be below 1 µM?
0 (no)

Given the entry COc1cc(CNCCc2ccccc2)ccc1OCc1ccccc1 [Compound 7] , would its reported IC50 be below 1 µM?
0 (no)

Given the entry CCOc1cc(CN(CCc2ccccc2)Cc2ccccc2)ccc1OC [Compound 20] , would its reported IC50 be below 1 µM?
1 (yes)

Given the entry COc1ccc(CNCCc2ccccc2)cc1OCc1ccccc1 [Compound 8] , would its reported IC50 be below 1 µM?
0 (no)

Given the entry C=CCN(CCc1ccc(OC)cc1)Cc1ccc(OCc2ccccc2)c(OC)c1 [Compound 13] , would its reported IC50 be below 1 µM?
0 (no)

###

# target.desc: human plasma BChE (Homo sapiens)
# Construct: was used as a source of BChE and was prepared from heparinized human blood; from tissue; host or cells: human plasma from heparinized human blood
# assay.explanation: biochemical
# Type: biochemical
# experimental.setup: tested at 100 µM compound concentration; read-out: % Inhibition hBuChE ± SEM
Param threshold (90%) applies to inhibition at 100 µM; output yes (1) when value >= threshold, no (0) when value < threshold.

Consider the following illustrative entries.
Reported inhibition at 100 µM at or above 90%? `C=CCN(CCc1ccc(O)cc1)Cc1ccc(OC)c(OCc2ccccc2)c1`
yes (1)

Reported inhibition at 100 µM at or above 90%? `CCOc1cc(CN(CCc2ccccc2)Cc2ccccc2)ccc1OC`
no (0)

Reported inhibition at 100 µM at or above 90%? `C=CCN(CCc1ccc(O)cc1)Cc1ccc(OCc2ccccc2)c(OC)c1`
yes (1)

Others:
Reported inhibition at 100 µM at or above 90%? `COc1ccc(CNCCc2ccccc2)cc1OCc1ccccc1`
yes (1)

Reported inhibition at 100 µM at or above 90%? `CCOc1cc(CNCCc2ccccc2)ccc1OC`
no (0)

Reported inhibition at 100 µM at or above 90%? `C=CCN(CCc1ccc(OC)cc1)Cc1ccc(OC)c(OCc2ccccc2)c1`
yes (1)
